# assay_summary: Cytotoxicity against human SH-SY5Y cells assessed as cell growth at 20 uM measured after 72 hrs by cellTiter 96 AQueous non-radioactive cell proliferation assay relative to control
# Type: cell-based
# assay_context: read-out: Activity
Below, each entry is listed alongside its reported viability at 72 h, 20 µM.
The answer consists of two parts: a number and, after it, its unit.

Solved entries:
[
  {
    "structure_notation": "N#Cc1ccnc(Oc2nn([C@H]3C[C@H](F)C3)c3ncnc(N)c23)c1",
    "viability at 72 h, 20 µM": "103%"
  },
  {
    "structure_notation": "Nc1ncnc2c1c(Oc1cc(C(F)(F)F)ccn1)nn2C1CC1",
    "viability at 72 h, 20 µM": "103%"
  },
  {
    "structure_notation": "CO[C@@]12[C@H](COC(N)=O)C3=C(C(=O)C(C)=C(N)C3=O)N1C[C@@H]1N[C@@H]12",
    "viability at 72 h, 20 µM": "0%"
  }
]

The reported viability at 72 h, 20 µM of the molecule Nc1ncnc2c1c(Oc1cc(C(F)(F)F)ccn1)nn2[C@@H]1CCCC[C@H]1O was 105%

###

# system_tested: LCK (Homo sapiens, UniProt P06239)
# Sequence (P06239 whole entry, the tested form may be a part): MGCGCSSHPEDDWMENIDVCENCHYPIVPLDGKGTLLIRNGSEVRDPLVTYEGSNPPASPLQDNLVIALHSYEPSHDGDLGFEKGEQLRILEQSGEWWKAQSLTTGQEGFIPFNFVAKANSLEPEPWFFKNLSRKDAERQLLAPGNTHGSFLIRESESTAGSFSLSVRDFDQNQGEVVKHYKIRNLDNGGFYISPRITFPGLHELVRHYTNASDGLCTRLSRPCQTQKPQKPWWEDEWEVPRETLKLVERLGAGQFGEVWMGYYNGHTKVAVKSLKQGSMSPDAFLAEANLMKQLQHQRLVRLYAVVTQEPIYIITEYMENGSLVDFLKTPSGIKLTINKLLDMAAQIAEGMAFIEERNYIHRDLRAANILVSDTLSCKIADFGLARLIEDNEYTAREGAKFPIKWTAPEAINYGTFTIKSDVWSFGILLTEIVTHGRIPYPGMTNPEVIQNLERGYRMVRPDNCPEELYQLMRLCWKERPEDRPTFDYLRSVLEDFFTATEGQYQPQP
# assay_summary: Inhibition of wild-type human partial length LCK (R207 to P509 residues) expressed in bacterial expression system at 10 uM by Kinomescan method relative to control
# Lookup of reported inhibition at 10 µM keyed by entry
I only need the number, in %, no unit after it.

Worked set:
[
  {
    "structure_notation": "N#Cc1ccnc(Oc2nn([C@H]3C[C@H](F)C3)c3ncnc(N)c23)c1",
    "inhibition at 10 µM, %": 74
  },
  {
    "structure_notation": "Nc1ncnc2c1c(Oc1cc(C(F)(F)F)ccn1)nn2C1CC1",
    "inhibition at 10 µM, %": 55
  }
]

The compound identified as Nc1ncnc2c1c(Oc1cc(C(F)(F)F)ccn1)nn2[C@@H]1CCCC[C@H]1O registered its inhibition at 10 µM at 45

###

# system_tested: MAP4K4 (Homo sapiens, UniProt O95819)
# Sequence (O95819 whole entry, the tested form may be a part): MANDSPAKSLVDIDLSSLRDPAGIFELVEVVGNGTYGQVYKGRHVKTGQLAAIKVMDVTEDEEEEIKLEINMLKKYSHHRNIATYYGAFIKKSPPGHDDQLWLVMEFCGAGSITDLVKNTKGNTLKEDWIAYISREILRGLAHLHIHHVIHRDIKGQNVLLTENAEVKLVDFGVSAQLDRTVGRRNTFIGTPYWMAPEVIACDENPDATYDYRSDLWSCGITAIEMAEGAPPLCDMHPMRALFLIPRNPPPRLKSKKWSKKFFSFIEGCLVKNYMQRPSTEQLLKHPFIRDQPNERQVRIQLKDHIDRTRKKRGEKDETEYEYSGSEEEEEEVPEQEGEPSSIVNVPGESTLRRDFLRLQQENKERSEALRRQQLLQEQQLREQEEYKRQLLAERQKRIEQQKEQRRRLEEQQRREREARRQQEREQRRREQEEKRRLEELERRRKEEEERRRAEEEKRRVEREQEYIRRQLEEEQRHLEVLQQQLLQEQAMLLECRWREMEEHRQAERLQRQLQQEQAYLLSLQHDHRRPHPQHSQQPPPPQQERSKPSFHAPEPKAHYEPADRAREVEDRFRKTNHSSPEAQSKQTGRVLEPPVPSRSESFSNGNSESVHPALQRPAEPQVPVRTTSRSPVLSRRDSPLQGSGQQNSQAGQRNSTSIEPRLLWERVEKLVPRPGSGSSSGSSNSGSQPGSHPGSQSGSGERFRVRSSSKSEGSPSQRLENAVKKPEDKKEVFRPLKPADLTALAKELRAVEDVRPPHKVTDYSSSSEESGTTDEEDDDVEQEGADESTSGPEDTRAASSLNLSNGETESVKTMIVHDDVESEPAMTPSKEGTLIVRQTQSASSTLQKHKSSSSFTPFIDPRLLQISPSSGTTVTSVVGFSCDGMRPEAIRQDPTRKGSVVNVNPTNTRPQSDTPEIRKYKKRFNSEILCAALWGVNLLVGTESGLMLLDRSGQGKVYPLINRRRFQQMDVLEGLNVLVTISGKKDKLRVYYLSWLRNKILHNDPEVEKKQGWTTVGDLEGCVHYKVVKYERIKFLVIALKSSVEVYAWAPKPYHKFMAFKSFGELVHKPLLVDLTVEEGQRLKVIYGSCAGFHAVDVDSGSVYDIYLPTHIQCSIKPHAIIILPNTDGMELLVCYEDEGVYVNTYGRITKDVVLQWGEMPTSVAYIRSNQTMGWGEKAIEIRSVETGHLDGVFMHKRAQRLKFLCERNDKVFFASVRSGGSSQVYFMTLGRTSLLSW
# assay_summary: Inhibition of recombinant human GST-tagged MAP4K4 catalytic domain expressed in baculovirus expression system at 1 uM by Lanthascreen assay relative to control
quantity_kind: inhibition at 1 µM

inhibition at 1 µM measured on Nc1ncnc2c1c(Oc1cc(C(F)(F)F)ccn1)nn2C1CC1 = > 50%

###

# assay_summary: Half life in human liver microsomes at 10 uM preincubated for 10 mins followed by NADPH addition by LC-MS/MS analysis
# Type: ADME, Microsome
# assay_context: microsomes, 10 µM
Recorded t1/2, one value per entry.
Numbers only here, please. The scale is h.

Use the examples below as a reference point.
[
  {
    "compound": "Nc1ncnc2c1c(Oc1cc(C(F)(F)F)ccn1)nn2C1CCCCC1",
    "quantity_kind": "t1/2",
    "obs_value": 0.55
  },
  {
    "compound": "Nc1ncnc2c1c(Oc1cccc(Cl)c1)nn2[C@H]1C[C@H](F)C1",
    "quantity_kind": "t1/2",
    "obs_value": 0.153
  },
  {
    "compound": "Nc1ncnc2c1c(Oc1cc(Cl)ccn1)nn2C1CCC1",
    "quantity_kind": "t1/2",
    "obs_value": 0.333
  }
]

Per the records, this compound ( Nc1ncnc2c1c(Oc1cc(C(F)(F)F)ccn1)nn2C1CCCC1 ) has t1/2 equal to 0.333

Entry under test: CC(C)(C)n1nc(Oc2cc(O)ccn2)c2c(N)ncnc21 . Its t1/2 was 1.4

response.value for CC(C)(C)n1nc(Oc2cc(Cl)ccn2)c2c(N)ncnc21 (field: t1/2) = 1

Reported t1/2 for Nc1ncnc2c1c(Oc1cc(Cl)ccn1)nn2CC1CCNCC1(F)F (centres undefined) was 0.8

Per the record, Nc1ncnc2c1c(Oc1cc(Cl)ccn1)nn2C1CC1 has t1/2 of 1.05

Record Nc1ncnc2c1c(Oc1cc(C(F)(F)F)ccn1)nn2CC1CC1 , field t1/2: 1.87
